Hello, the source for this data is ChEMBL document CHEMBL4020793, in case you need it.

# Test system: HCT-116
# protocolNotes: Antiproliferative activity against human HCT116 cells assessed as cell viability after 72 hrs by MTS assay
# Format: functional, cell-based
# testParameters: HCT-116, 72 h
pIC50: −log10 of the molar value.
Class Fulfilled: pIC50 at least 7. Class Not fulfilled: pIC50 below 7.

Test whether the compound CC[C@]12C=CCN3CC[C@@]4(c5cc([C@@]6(C(=O)OC)C[C@@H]7CN(CCc8c6[nH]c6ccccc86)C[C@@]6(O)CCCC[C@@H]76)c(OC)cc5N(C)[C@H]4[C@@](O)(C(=O)OC)[C@@H]1OC(C)=O)[C@@H]32 records pIC50 of 7 or higher.
Fulfilled

Test whether the compound CC[C@]12C=CCN3CC[C@@]4(c5cc([C@@]6(C(=O)OC)C[C@@H]7CN(CCc8c6[nH]c6ccccc86)C[C@](O)(CCO)C7)c(OC)cc5N(C)[C@H]4[C@@](O)(C(=O)OC)[C@@H]1OC(C)=O)[C@@H]32 records pIC50 of 7 or higher.
Not fulfilled

Test whether the compound CCC[C@]1(O)C[C@H]2CN(CCc3c([nH]c4ccccc34)[C@@](C(=O)OC)(c3cc4c(cc3OC)N(C)[C@H]3[C@@](O)(C(=O)OC)[C@H](OC(C)=O)[C@]5(CC)C=CCN6CC[C@]43[C@@H]65)C2)C1 records pIC50 of 7 or higher.
Not fulfilled

Test whether the compound CC[C@]12C=CCN3CC[C@@]4(c5cc([C@@]6(C(=O)OC)C[C@@H]7CN(CCc8c6[nH]c6ccccc86)C[C@](O)(CCF)C7)c(OC)cc5N(C)[C@H]4[C@@](O)(C(=O)OC)[C@@H]1OC(C)=O)[C@@H]32 records pIC50 of 7 or higher.
Fulfilled

Test whether the compound CC[C@]12C=CCN3CC[C@@]4(c5cc([C@@]6(C(=O)OC)C[C@@H]7CN(CCc8c6[nH]c6ccccc86)C[C@@]6(O)CCCC[C@H]76)c(OC)cc5N(C)[C@H]4[C@@](O)(C(=O)OC)[C@@H]1OC(C)=O)[C@@H]32 records pIC50 of 7 or higher.
Fulfilled

Test whether the compound CCCC[C@]1(O)C[C@H]2CN(CCc3c([nH]c4ccccc34)[C@@](C(=O)OC)(c3cc4c(cc3OC)N(C)[C@H]3[C@@](O)(C(=O)OC)[C@H](OC(C)=O)[C@]5(CC)C=CCN6CC[C@]43[C@@H]65)C2)C1 records pIC50 of 7 or higher.
Not fulfilled

====

# System: HCT-116/VM46
# protocolNotes: Antiproliferative activity against vinblastine-resistant human HCT116/VM46 cells assessed as cell viability after 72 hrs by MTS assay
# Format: functional, cell-based
# testParameters: HCT-116/VM46, 72 h
measurementKind: pIC50
On this scale, pIC50 is minus log10 of a concentration expressed in M (mol/L).

Sample CC[C@]12C=CCN3CC[C@@]4(c5cc([C@@]6(C(=O)OC)C[C@@H]7CN(CCc8c6[nH]c6ccccc86)C[C@@]6(O)CCCC[C@@H]76)c(OC)cc5N(C)[C@H]4[C@@](O)(C(=O)OC)[C@@H]1OC(C)=O)[C@@H]32 , system: HCT-116/VM46. Its pIC50 is 7.22

Sample CC[C@]12C=CCN3CC[C@@]4(c5cc([C@@]6(C(=O)OC)C[C@@H]7CN(CCc8c6[nH]c6ccccc86)C[C@@]6(O)CCCC[C@H]76)c(OC)cc5N(C)[C@H]4[C@@](O)(C(=O)OC)[C@@H]1OC(C)=O)[C@@H]32 , system: HCT-116/VM46. Its pIC50 is 6.70

Sample CC[C@]12C=CCN3CC[C@@]4(c5cc([C@@]6(C(=O)OC)C[C@@H]7CN(CCc8c6[nH]c6ccccc86)C[C@](O)(CCF)C7)c(OC)cc5N(C)[C@H]4[C@@](O)(C(=O)OC)[C@@H]1OC(C)=O)[C@@H]32 , system: HCT-116/VM46. Its pIC50 is 6.38

Sample CC[C@]12C=CCN3CC[C@@]4(c5cc([C@@]6(C(=O)OC)C[C@@H]7CN(CCc8c6[nH]c6ccccc86)C[C@](O)(CCC#N)C7)c(OC)cc5N(C)[C@H]4[C@@](O)(C(=O)OC)[C@@H]1OC(C)=O)[C@@H]32 , system: HCT-116/VM46. Its pIC50 is 5.10

====

Please go through the items and note down their IC50.
# Test system: HCT-116/VM46
# protocolNotes: Antiproliferative activity against vinblastine-resistant human HCT116/VM46 cells assessed as cell viability after 72 hrs by MTS assay
# Type: functional, cell-based
# testParameters: HCT-116/VM46, 72 h

For reference, reported IC50 for CCCC[C@]1(O)C[C@H]2CN(CCc3c([nH]c4ccccc34)[C@@](C(=O)OC)(c3cc4c(cc3OC)N(C)[C@H]3[C@@](O)(C(=O)OC)[C@H](OC(C)=O)[C@]5(CC)C=CCN6CC[C@]43[C@@H]65)C2)C1 stands at > 1 µM

For reference, reported IC50 for CC[C@]12C=CCN3CC[C@@]4(c5cc([C@@]6(C(=O)OC)C[C@@H]7CN(CCc8c6[nH]c6ccccc86)C[C@](O)(CCN=[N+]=[N-])C7)c(OC)cc5N(C)[C@H]4[C@@](O)(C(=O)OC)[C@@H]1OC(C)=O)[C@@H]32 stands at 3 µM

For reference, reported IC50 for CC[C@]12C=CCN3CC[C@@]4(c5cc([C@@]6(C(=O)OC)C[C@@H]7CN(CCc8c6[nH]c6ccccc86)C[C@](O)(CCO)C7)c(OC)cc5N(C)[C@H]4[C@@](O)(C(=O)OC)[C@@H]1OC(C)=O)[C@@H]32 stands at > 1 µM

For reference, reported IC50 for CCC[C@]1(O)C[C@H]2CN(CCc3c([nH]c4ccccc34)[C@@](C(=O)OC)(c3cc4c(cc3OC)N(C)[C@H]3[C@@](O)(C(=O)OC)[C@H](OC(C)=O)[C@]5(CC)C=CCN6CC[C@]43[C@@H]65)C2)C1 stands at > 1 µM
